# system.tested: ZFP SBS#1488 (synthetic)
# Sequence (chain, as listed by the source): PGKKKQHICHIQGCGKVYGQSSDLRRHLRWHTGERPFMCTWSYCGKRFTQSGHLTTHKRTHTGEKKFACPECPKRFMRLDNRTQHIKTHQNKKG
# method.notes: EMSA
# assay.conditions: tags: MBP fusion
property.label: Kd (nM)
Use nM as the unit, but write only the number.

Dear colleague, I am looking for the recorded Kd of the following binder: AAGTGGTAG (dsDNA) DNA 1: AAGTGGTAG DNA 2: CTACCACTT
5.64
